- EXPERIMENTAL SYSTEM: human orexin-2 receptor (Homo sapiens (Human), UniProt O43614)
- Sequence (O43614 whole entry): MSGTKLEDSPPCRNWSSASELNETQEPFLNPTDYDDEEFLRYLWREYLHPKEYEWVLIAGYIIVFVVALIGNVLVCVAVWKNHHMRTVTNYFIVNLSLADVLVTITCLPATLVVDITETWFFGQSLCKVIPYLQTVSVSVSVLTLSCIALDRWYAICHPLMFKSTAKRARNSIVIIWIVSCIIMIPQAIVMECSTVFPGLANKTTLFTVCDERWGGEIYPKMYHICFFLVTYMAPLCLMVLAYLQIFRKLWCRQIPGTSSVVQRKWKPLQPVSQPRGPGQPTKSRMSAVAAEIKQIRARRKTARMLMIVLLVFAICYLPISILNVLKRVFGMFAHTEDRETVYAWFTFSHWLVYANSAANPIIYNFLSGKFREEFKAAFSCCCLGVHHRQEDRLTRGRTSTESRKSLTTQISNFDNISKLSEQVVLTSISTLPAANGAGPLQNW
- ASSAY NAME: In vitro assay: intracellular calcium measurements (FLIPR), antagonistic activity
- APPLIED CONDITIONS: CHO cells expressing human orexin-2 receptor, orexin-A agonist, geometric mean, read-out: IC50 Ox2
pIC50: −log10 of the molar value.
READOUT LABEL: pIC50

(A) COc1ccccc1-c1sc(C)nc1C(=O)N1CC[C@H](C)[C@H]1c1nc2c(C(F)(F)F)cccc2[nH]1 [Ex. 4.156]
(B) Cc1ccc(-c2sccc2C(=O)N2CC[C@H](C)[C@H]2c2nc3c(Cl)cccc3[nH]2)cc1C [Ex. 4.127]
(C) C=C1C[C@@H](c2nc3cccc(C)c3[nH]2)N(C(=O)c2cc(C)c(C)cc2-n2nccn2)C1 [Ex. 6.108]
[ask] Task for the reader: place the compounds above in descending order according to recorded pIC50. Thanks in advance for listing the labels in the requested order.
[reply] C, B, A
(C: 8.15, B: 7.72, A: 6.31)

====

- EXPERIMENTAL SYSTEM: human orexin-1 receptor (Homo sapiens (Human), UniProt O43613)
- Sequence (O43613 whole entry): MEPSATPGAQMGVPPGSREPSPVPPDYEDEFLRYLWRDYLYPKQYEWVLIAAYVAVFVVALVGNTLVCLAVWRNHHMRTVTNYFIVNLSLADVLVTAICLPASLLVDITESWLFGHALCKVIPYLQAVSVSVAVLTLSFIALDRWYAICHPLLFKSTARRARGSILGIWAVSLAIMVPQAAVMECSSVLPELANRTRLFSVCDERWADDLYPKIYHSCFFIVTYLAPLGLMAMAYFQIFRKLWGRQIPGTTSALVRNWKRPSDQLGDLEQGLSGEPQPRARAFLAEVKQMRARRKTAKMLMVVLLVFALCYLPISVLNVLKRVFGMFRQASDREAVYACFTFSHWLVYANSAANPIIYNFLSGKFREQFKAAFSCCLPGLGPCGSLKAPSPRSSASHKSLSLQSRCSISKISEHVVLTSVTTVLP
- ASSAY NAME: In vitro assay: intracellular calcium measurements (FLIPR), antagonistic activity
- APPLIED CONDITIONS: CHO cells expressing human orexin-1 receptor, orexin-A agonist, geometric mean, read-out: IC50 Ox1
READOUT LABEL: IC50 (µM)

Solved entries (count: 10):
> print(dat)
                                    compound                       experimental.system  observed
 1  Cc1ccc(-n2nccn2)c(C(=O)N2CCC[C@@]2(C)c2nc3c(C)c(Cl)ccc3n2C)c1  human orexin-1 receptor (Homo sapiens (Human), UniProt O43613)     0.001
 2  COc1ccc(-c2sc(C)nc2C(=O)N2CC[C@H](C)[C@H]2c2nc3cc(C(F)(F)F)ccc3[nH]2)cc1  human orexin-1 receptor (Homo sapiens (Human), UniProt O43613)     0.005
 3  Cc1ccc(C(=O)N2CC[C@H](C)[C@H]2c2nc3cc(Cl)c(C)cc3[nH]2)c(-c2ccccc2)c1  human orexin-1 receptor (Homo sapiens (Human), UniProt O43613)     0.002
 4  C=C1CC(c2nc3c(C)c(Cl)ccc3[nH]2)N(C(=O)c2cc(C)sc2-c2ccc(C)c(C)c2)C1 (stereo not shown)  human orexin-1 receptor (Homo sapiens (Human), UniProt O43613)     0.004
 5  C=C1C[C@@H](c2nc3cc(C)c(C)cc3[nH]2)N(C(=O)c2cc(C)ccc2-n2cccn2)C1  human orexin-1 receptor (Homo sapiens (Human), UniProt O43613)     0.148
 6  Cc1nc(C(=O)N2CCCC2c2nc3c(C)c(C)ccc3[nH]2)c(-c2cccc(Cl)c2)s1 (stereo not shown)  human orexin-1 receptor (Homo sapiens (Human), UniProt O43613)     0.037
 7  COc1cc2nc([C@]3(C)CCCN3C(=O)c3c(-n4nccn4)ccc(C)c3F)[nH]c2cc1OC  human orexin-1 receptor (Homo sapiens (Human), UniProt O43613)     0.141
 8  C=C1C[C@@H](c2nc3cc(Cl)c(C(F)(F)F)cc3[nH]2)N(C(=O)c2cc(Cl)ccc2-n2nccn2)C1  human orexin-1 receptor (Homo sapiens (Human), UniProt O43613)     0.013
 9  CSc1ccc2nc([C@@H]3CCCN3C(=O)c3nc(C)sc3-c3cccc(Cl)c3Cl)[nH]c2c1  human orexin-1 receptor (Homo sapiens (Human), UniProt O43613)     0.109
10  COCCn1c([C@]2(C)CCCN2C(=O)c2cc(C)ccc2-n2nccn2)nc2cc(OC)c(OC)cc21  human orexin-1 receptor (Homo sapiens (Human), UniProt O43613)     0.078

(1) Cc1ccc(-n2nccn2)c(C(=O)N2CC[C@H](C)[C@H]2c2nc3c(C(F)(F)F)cccc3[nH]2)c1
(2) C=C1CC(c2nc3c(C)cc(C)cc3[nH]2)N(C(=O)c2nc(C3CC3)sc2-c2cccc(C)c2)C1 (stereo not shown)
[ask] For the pair 1 and 2 , which member has the lower IC50 number? Bench note: the answer is the label of the chosen record.
[reply] 2
(2: 0.002 µM, 1: 0.037 µM)

====

- EXPERIMENTAL SYSTEM: human orexin-2 receptor (Homo sapiens (Human), UniProt O43614)
- ASSAY NAME: In vitro assay: intracellular calcium measurements (FLIPR), antagonistic activity
- APPLIED CONDITIONS: CHO cells expressing human orexin-2 receptor, orexin-A agonist, geometric mean, read-out: IC50 Ox2
READOUT LABEL: IC50 (nM)

(a) COc1cccc(-c2nc(C(=O)N3CCC[C@@]3(C)c3nc4cc(Cl)c(C(F)(F)F)cc4[nH]3)c(-c3ccc(F)cc3)s2)c1
(b) C=C1C[C@@H](c2nc3ccc(OC)cc3[nH]2)N(C(=O)c2cc(C)ccc2-n2cccn2)C1
(c) CSc1ccc2nc([C@@H]3CCCN3C(=O)c3cnc(C)nc3-c3ccc(F)cc3)[nH]c2c1
(d) Cc1nc(C(=O)N2CCCC2c2nc3cc(C(F)(F)F)c(Cl)cc3[nH]2)c(-c2ccccc2)s1 (stereo not shown)
[ask] Task for the reader: place the compounds above in descending order according to recorded IC50. Thanks in advance for listing the labels in the requested order.
[reply] a, c, d, b
(a: 671 nM, c: 107 nM, d: 33 nM, b: 23 nM)

====

- EXPERIMENTAL SYSTEM: human orexin-1 receptor (Homo sapiens (Human), UniProt O43613)
- ASSAY NAME: In vitro assay: intracellular calcium measurements (FLIPR), antagonistic activity
- APPLIED CONDITIONS: CHO cells expressing human orexin-1 receptor, orexin-A agonist, geometric mean, read-out: IC50 Ox1
pIC50: −log10 of the molar value.
READOUT LABEL: pIC50

> print(dat)
                                   compound  observed
1  Cc1c(Cl)ccc2[nH]c([C@]3(C)CCCN3C(=O)c3nc(-c4cccc(F)c4)sc3-c3ccc(F)cc3)nc12 [Ex. 5.234]      8.10
2  CO[C@H]1CN(C(=O)c2cc(Cl)ccc2-n2nccn2)C(C)(c2nc3c(C)c(Cl)ccc3[nH]2)C1 (some centres unmarked) [Ex. 3.44]      8.52

(1) Cc1ccc(-c2ccc(C)cc2C(=O)N2CCC[C@@]2(C)c2nc3cc(C(F)(F)F)ccc3[nH]2)cc1 [Ex. 5.192]
(2) C=C1C[C@@H](c2nc3cccc(SC)c3[nH]2)N(C(=O)c2cc(C)ccc2-n2nccn2)C1 [Ex. 6.59]
(3) Cc1ccc(-c2ncccn2)c(C(=O)N2CCC[C@@]2(C)c2nc3c(C)c(Cl)ccc3[nH]2)c1 [Ex. 5.214]
(4) C=C1C[C@@H](c2nc3cc(OC)ccc3[nH]2)N(C(=O)c2nccnc2-c2cccc(C)c2)C1 [Ex. 6.6]
(5) C[C@@]1(c2nc3cc(C(F)(F)F)ccc3[nH]2)CCCN1C(=O)c1cc(C#N)ccc1-n1nccn1 [Ex. 5.180]
[ask] # rank_down: sort by pIC50, max first Thanks in advance for listing the labels in the requested order.
[reply] 3, 1, 5, 2, 4

(A) CSc1cccc2nc([C@@H]3CCCN3C(=O)c3cncnc3-c3ccc(C)cc3)[nH]c12 [Ex. 1.78]
(B) Cc1ccc(-n2nccn2)c(C(=O)N2CCC[C@@]2(C)c2nc3c(Br)cc(F)cc3[nH]2)c1 [Ex. 5.25]
[ask] For the pair A and B , which member has the lower pIC50 number? Bench note: the answer is the label of the chosen record.
[reply] A
(A: 6.99, B: 7.57)

====

- EXPERIMENTAL SYSTEM: human orexin-1 receptor (Homo sapiens (Human))
- ASSAY NAME: In vitro assay: intracellular calcium measurements (FLIPR), antagonistic activity
- Type: cell-based
- APPLIED CONDITIONS: CHO cells expressing human orexin-1 receptor, orexin-A agonist, geometric mean, read-out: IC50 Ox1
pIC50: −log10 of the molar value.
READOUT LABEL: pIC50

Solved entries (count: 10):
> print(dat)
                                    molecule  observed
 1  CSc1ccc2nc([C@@H]3CCCN3C(=O)c3cnc(C)nc3-c3cccc(Cl)c3)[nH]c2c1      7.18
 2  Cc1nc(C(=O)N2CCC[C@H]2c2nc3cc(Cl)c(C)cc3[nH]2)c(-c2ccccc2)s1      7.85
 3  C=C1C[C@@H](c2nc3cccc(C)c3[nH]2)N(C(=O)c2nc(C)sc2-c2cc(C)cc(C)c2)C1      7.13
 4  Cc1c(Cl)ccc2[nH]c([C@@H]3[C@@H](C)CCN3C(=O)c3ccccc3-n3nccn3)nc12      8.22
 5  Cc1ccc(-c2sccc2C(=O)N2CC[C@H](C)[C@H]2c2nc3cc(C(F)(F)F)ccc3[nH]2)cc1C      8.05
 6  Cc1ccc(-c2ccccc2)c(C(=O)N2CC[C@H](C)[C@H]2c2nc3c(C)c(Cl)ccc3[nH]2)c1      8.70
 7  CO[C@H]1C[C@@H](c2nc3c(C)c(Cl)ccc3[nH]2)N(C(=O)c2nc(C)sc2-c2cccc(Cl)c2)C1      7.66
 8  Cc1nc(C(=O)N2CC[C@H](C)[C@H]2c2nc3cc(Cl)cc(C)c3[nH]2)c(-c2cccc(Cl)c2)s1      8.70
 9  CO[C@H]1CN(C(=O)c2c(-n3nccn3)ccc(C)c2F)C(C)(c2nc3c(C)c(Cl)ccc3[nH]2)C1 (stereo partly drawn)      6.65
10  COc1cc2nc([C@]3(C)CCCN3C(=O)c3cc(C)ccc3-c3ncccn3)[nH]c2cc1OC      7.44

(a) COc1cccc(C#Cc2ccccc2C(=O)N2CCC[C@@]2(C)c2nc3c(C)cc(Br)cc3[nH]2)c1
(b) Cc1nc(C(=O)N2CC[C@H](C)[C@H]2c2nc3c(C(C)C)cccc3[nH]2)c(-c2cccc(Cl)c2)s1
(c) C[C@@]1(c2nc3cc(F)c(Br)cc3[nH]2)CCCN1C(=O)c1cc(F)ccc1-n1nccn1
(d) COc1cc2nc([C@]3(C)CCCN3C(=O)c3ncsc3-c3cccc(Cl)c3)[nH]c2cc1OC
(e) Cc1ccc(-c2ccccc2F)c(C(=O)N2CCC[C@@]2(C)c2nc3cc(C)c(C)cc3n2C)c1
[ask] # rank_down: sort by pIC50, max first Thanks in advance for listing the labels in the requested order.
[reply] b, e, a, c, d
